# target_of_assay: insulin receptor A (UniProt P06213-2 28-1370, limits assumed)
# Sequence (P06213 other isoform, or with tags, fused parts or gaps limits assumed): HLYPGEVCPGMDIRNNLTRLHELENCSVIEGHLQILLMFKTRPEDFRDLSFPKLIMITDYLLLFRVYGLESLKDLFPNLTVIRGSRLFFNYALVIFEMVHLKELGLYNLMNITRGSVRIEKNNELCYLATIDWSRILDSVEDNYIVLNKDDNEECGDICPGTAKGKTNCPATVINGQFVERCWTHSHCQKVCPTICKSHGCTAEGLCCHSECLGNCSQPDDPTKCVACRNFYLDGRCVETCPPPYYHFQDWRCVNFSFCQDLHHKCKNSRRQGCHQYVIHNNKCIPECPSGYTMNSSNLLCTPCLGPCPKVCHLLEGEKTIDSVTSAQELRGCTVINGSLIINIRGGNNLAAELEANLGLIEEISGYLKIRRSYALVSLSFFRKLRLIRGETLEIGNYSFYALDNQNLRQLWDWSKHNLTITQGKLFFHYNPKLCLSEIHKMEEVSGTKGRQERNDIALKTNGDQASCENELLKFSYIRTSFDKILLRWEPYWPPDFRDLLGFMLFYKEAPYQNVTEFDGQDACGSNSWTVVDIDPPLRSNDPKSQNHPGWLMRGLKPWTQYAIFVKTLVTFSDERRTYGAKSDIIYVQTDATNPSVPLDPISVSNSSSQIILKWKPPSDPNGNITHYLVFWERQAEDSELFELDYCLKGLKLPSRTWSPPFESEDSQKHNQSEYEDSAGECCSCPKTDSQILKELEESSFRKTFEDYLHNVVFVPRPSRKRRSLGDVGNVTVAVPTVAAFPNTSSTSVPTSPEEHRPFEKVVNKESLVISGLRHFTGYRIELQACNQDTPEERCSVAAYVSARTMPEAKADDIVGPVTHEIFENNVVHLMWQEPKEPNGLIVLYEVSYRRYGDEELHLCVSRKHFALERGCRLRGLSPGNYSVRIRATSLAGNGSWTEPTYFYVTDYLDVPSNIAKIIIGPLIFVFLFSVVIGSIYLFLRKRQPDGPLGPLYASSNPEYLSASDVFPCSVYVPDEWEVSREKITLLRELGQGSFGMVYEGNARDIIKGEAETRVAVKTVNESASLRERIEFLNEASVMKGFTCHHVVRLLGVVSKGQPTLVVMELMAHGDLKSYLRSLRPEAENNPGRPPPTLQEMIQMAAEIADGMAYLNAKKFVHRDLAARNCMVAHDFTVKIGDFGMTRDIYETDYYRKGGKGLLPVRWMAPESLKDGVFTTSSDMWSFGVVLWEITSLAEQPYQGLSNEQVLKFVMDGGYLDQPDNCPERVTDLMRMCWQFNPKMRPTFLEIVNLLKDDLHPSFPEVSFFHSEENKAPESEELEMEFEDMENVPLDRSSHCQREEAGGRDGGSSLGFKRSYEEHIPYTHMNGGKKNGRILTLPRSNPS
# test_method_notes: insulin receptor binding assay as in Vienberg et al. 2011; relative to human insulin on insulin receptor A (100%)
metric: Insulin receptor affinity [IC50 relative to HI (%)]
Report as a plain number; the unit % is understood.

Inquiry: What does the data say about its Insulin receptor affinity [IC50 relative to HI (%)]? Entry: (A14E, A21G, A22(GQAP)19, A98K^, A99P, B25H, B29R, desB30 human insulin)/(227A, 234A, 235K, 297E, 315Q, 384Q, des447 hIgG4-Fc(228-447)) … (other, Cys229 (EU numbering) sulphur bound to an acetyl arm of the linker; A98K N(eps) acylated by the trivalent linker 4-[bis[2-[(2-acetyl)amino]ethyl]amino]-4-oxo-butanoyl, also called Ex 5.15) chain 1: GIVEQCCTSICSLEQLENYCGGQAPGQAPGQAPGQAPGQAPGQAPGQAPGQAPGQAPGQAPGQAPGQAPGQAPGQAPGQAPGQAPGQAPGQAPGQAPKP chain 2: FVNQHLCGSHLVEALYLVCGERGFHYTPR chain 3: ASCPAPEAKGGPSVFLFPPKPKDTLMISRTPEVTCVVVDVSQEDPEVQFNWYVDGVEVHNAKTKPREEQFESTYRVVSVLTVLHQDWLQGKEYKCKVSNKGLPSSIEKTISKAKGQPREPQVYTLPPSQEEMTKNQVSLTCLVKGFYPSDIAVEWESQGQPENNYKTTPPVLDSDGSFFLYSRLTVDKSRWQEGNVFSCSVMHEALHNHYTQKSLSLSLG
Reply text: 3.68
